- System name: Recombinant human cathepsin A (Homo sapiens (Human), UniProt P10619)
- Sequence (P10619 29-326): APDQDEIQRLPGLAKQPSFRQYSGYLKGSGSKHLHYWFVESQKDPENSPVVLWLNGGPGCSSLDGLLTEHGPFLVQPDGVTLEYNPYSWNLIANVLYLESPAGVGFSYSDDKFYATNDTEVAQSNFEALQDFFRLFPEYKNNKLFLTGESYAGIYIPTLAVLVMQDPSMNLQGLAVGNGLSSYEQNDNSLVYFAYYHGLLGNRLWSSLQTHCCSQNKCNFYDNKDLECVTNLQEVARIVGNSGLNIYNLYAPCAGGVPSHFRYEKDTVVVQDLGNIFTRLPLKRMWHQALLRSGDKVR
- Sequence (P10619 327-480): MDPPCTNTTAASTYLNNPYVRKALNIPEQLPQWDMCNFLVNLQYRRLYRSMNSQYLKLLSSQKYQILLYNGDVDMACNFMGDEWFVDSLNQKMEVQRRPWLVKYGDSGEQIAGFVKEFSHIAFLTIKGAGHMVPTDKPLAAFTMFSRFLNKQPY
- Assay explanation: Cathepsin A inhibitory activity (cleavage of Bodipy FL-labeled bradykinin, microfluidic capillary electrophoresis)
- Type: biochemical
- Test settings: read-out: Activity (Cathepsin A inhibitory activity, IC50)
Measurement label: IC50 (µM)

A: O=C(O)CC(NC(=O)c1cc(-c2ccccc2)nc(N2CCCCC2)n1)c1ccccc1Cl (stereo not shown) [compound 616]
B: O=C(O)C[C@H](NC(=O)c1cccc(-c2ccccc2Cl)n1)c1ccccc1C(F)(F)F [compound 612]
Would you let me know which has the greater IC50 value, A or B ? Kindly give the label for the entry you pick.
A
(A: 10.4 µM, B: 1.66 µM)

---

- System name: Recombinant human cathepsin A (Homo sapiens (Human), UniProt P10619)
- Assay explanation: Cathepsin A inhibitory activity (cleavage of Bodipy FL-labeled bradykinin, microfluidic capillary electrophoresis)
- Assay type: biochemical
- Test settings: read-out: Activity (IC50, cathepsin A inhibitory activity)
Measurement label: IC50 (µM)

Examples with their reported IC50 follow.
> print(dat)
                                smiles.data  measurement.label  quantitative.result
1  Cc1ccccc1[C@H](CC(=O)O)NC(=O)c1cc(N(C)C)nc(N(C)C)n1               IC50                 10.1
2  COc1cccc(-c2cccc(C(=O)N[C@@H](CC(=O)O)c3ccccc3C)n2)c1               IC50                 2.27
3    Cc1ccccc1[C@H](CC(=O)O)NC(=O)c1ncccc1F               IC50                 3.42
4     Cc1ccccc1[C@H](CC(=O)O)NC(=O)c1cccnc1               IC50                 10.4

a: Cc1ccccc1[C@H](CC(=O)O)NC(=O)c1cc(CC(C)C)nc(N)n1
b: COc1ccccc1-c1cccc(C(=O)N[C@@H](CC(=O)O)c2ccccc2C)n1
I'm curious, which of these has a smaller IC50 number: a or b ? Returns: label corresponding to the selected item.
b
(b: 1.19 µM, a: 3.68 µM)

---

- System name: Recombinant human cathepsin A (Homo sapiens (Human), UniProt P10619)
- Assay explanation: Cathepsin A inhibitory activity (cleavage of Bodipy FL-labeled bradykinin, microfluidic capillary electrophoresis)
- Format: biochemical
- Test settings: read-out: Activity (IC50, cathepsin A inhibition)
pIC50: −log10 of the molar value.
Measurement label: pIC50

> print(dat)
                                   compound  quantitative.result
1  COc1cccc(-c2cccc(C(=O)NC(CC(=O)O)c3ccccc3Cl)n2)c1 (stereo not shown) [compound 596]                 5.24
2  Cc1cc(C)nc(C(=O)NC(CC(=O)O)c2ccccc2Cl)c1 (stereo not shown) [compound 533]                 5.20

1: COc1ccc(C(=O)N[C@@H](CC(=O)O)c2ccccc2C)nc1-c1cccnc1 [compound 578]
2: Cc1cccc([C@H](CC(=O)O)NC(=O)c2cccc(-c3ccccc3F)n2)c1 [compound 560]
Just tell me: smaller pIC50 value, 1 or 2 ? Record your answer as the label of the chosen record.
2
(2: 4.89, 1: 5.12)

---

- System name: Recombinant human cathepsin A (Homo sapiens (Human), UniProt P10619)
- Assay explanation: Cathepsin A inhibitory activity (cleavage of Bodipy FL-labeled bradykinin, microfluidic capillary electrophoresis)
- Type: biochemical
- Test settings: read-out: Activity (IC50, cathepsin A inhibitory activity)
pIC50: −log10 of the molar value.
Measurement label: pIC50

1: COc1ccc(C(=O)N[C@@H](CC(=O)O)c2ccc(C)cc2)nc1-c1ccc(F)nc1
2: Cc1ccccc1[C@H](CC(=O)O)NC(=O)c1ccnc(-c2ccccc2F)c1
# min-compare on pIC50 between 1 and 2 Give the label under which the chosen entry appears.
1
(1: 5.12, 2: 5.57)
